- measurement.target: T1, Cynomolgus monkey LRP-8 expressed on HEK293 cells (cynomolgus monkey)
- T1 construct: whole, on cells; also called cyno LRP-8; cLRP-8
- protocol.description: cell-based binding on CYNO LRP8-HEK293, supernatant 1:5
quantity.measured: fold over isotype control (fold)
Answer format: numeric, fold implied, no suffix.

# binder, fold over isotype control (fold)
data = [
    ("anti-LRP-8 BGK.2C8.E6.D3 [r/m IgG2a/K] (antibody, V domains shown) VH: QVTLKESGPGILQPSQTLSLTCTFSGFSLNTYGMGVGWVRQPSGKGLEWLANIWWDDDKFYNPSLKNRLTVSKDTSNNQAFLRITNGDTADTATYFCARILGEDIGGALDAWGQGTSVTVSS VL: DTVLTQSPALAVSPGERVSISCRASEGVNSYMHWYQQNPGQQSKLLIYRTSNLASGVPARFGGSGSGTDFTLTIDPVEADDTATYFCQQSWNDPPTFGGGTKLELK", 5.16),
    ("anti-LRP-8 BGK.6E3.F4 [r/m IgG2a/K] (antibody, V domains shown, Rat variable domains on mouse IgG2a/kappa) VH: EVQLVESGGGLVQPGKSLKLSCAASGFTFSDYNMAWVRQAPKKGLEWVATIMYDGSRTFYRDSVKGRYTFSRDNAKSTLYLQMDSLRSEDTATYYCATGRNWFAYWGQGTLVTVSS VL: DIIMTQSPSSLAVSAGETVTINCKSSQSLLSSGKQKNYLAWYQQKPGQSPKLLIYLASTRESGVPDRFIGSGSGTDFTLTISSMQAEDLAIYYCQQHYDTPLTFGSGTKLEIK", 0.41),
    ("anti-LRP-8 BGK.5D10.E4 [r/m IgG2a/K] (antibody, V domains shown, Rat variable domains on mouse IgG2a/kappa) VH: QVQLRETGPDLVQPTQTLSLTCTVSGFSLTNYPVQWVRQPPGSGLEWLGIMWPSGAADFNPALKSRLSISRDTSKSQFFLRMDNLQTDDTAIYFCARGRGYSSPYAMDAWGQGTSVTVSS VL: DIQMTQSPASLSASLGETVSIECLASEDIYNNLAWYQQKPGKSPHLLIHFTSNLQDGVPSRFSGSGSGTQYSLKINSLESEDGATYFCLQDSEYPLTFGSGTKLEIK", 5.85),
]

Task: Sample BGK-7F7 (GENOVAC candidate clone of Table 17) (antibody, V domains shown, here the candidate from rat immunization before chimerization, tested at dilutions) VH: QVTLKESGPGILQPSQTLSLTCTFSGFSLSTYGLGVGWIRQPSGKGLEWLANIWWDDAKYYNPSLKNRLTISKDTSNNQAFLKIPNVDTADTARYYCARTTKPYYFDYWGQGVMVTVSS VL: HFVLAQPNSVSTNLGSTVKLSCKRSTANIGSNYVNWYQQHEGRSPTTLIYRDDRRPDGVPDRFSGSIDRSSNSALLTINNVQTEDEADYFCQSYSSGINIFGGGTKLTVL — what was its fold over isotype control?
Output: 3.23

Taken from patent US20160200813A1.
